# Tested on: SN12C renal
# assay.explanation: NCI-60 one-dose screen, 48 h
# condition.label: 10 µM unless noted
About 83,000 compounds went through this panel and 20% of them were active in at least one assay; those are over-represented in the sample as a whole. The source made the active and inactive calls. Rule for the calls: active = growth percent below 10; inactive = the rest.
Outcomes you can answer with include only these: active, inactive

Cc1cc(C)nc(SCC(=O)Nc2cccc(N=Cc3ccccc3O)c2)n1: inactive
COc1cccc(-c2[nH]c(=S)ncc2C(=O)c2ccccc2)c1: inactive
CCOc1cc(/C=N\NC(=O)N/N=C/c2ccc(O)c(OCC)c2)ccc1O: inactive
CC(C)[C@H]1COC(=O)N1[C@@H]1C(=O)N([C@@H](CCC(=O)N2CCN(C3CCCC3)CC2)C(=O)N[C@@H]2CCCc3ccccc32)[C@@H]1/C=C/c1cccc(Cl)c1: inactive
Cn1ncc2c(Nc3ccc(O)cc3)nc(Cl)nc21: inactive
COc1ccc(CC(C#N)c2ccc(Cl)cc2)cc1 (stereo unspecified): inactive
CC(C)C1=NOC(=O)C1=Cc1cn(-c2ccccc2)nc1-c1ccccc1: inactive
CCCCCCCCN(CCCCCCCC)CC(O)c1ccc(Cl)c(C)c1Cl (stereo unspecified): inactive

Each molecule tested received a call. Report the one for O=S(=O)(c1ccc(N/N=C\c2ccccc2Cl)cc1)c1ccc(N/N=C/c2ccccc2Cl)cc1 .
inactive

Each molecule tested received a call. Report the one for CCN(CC)c1ccc(/C=C/C=C2\NC(=O)NC2=O)cc1 .
inactive

Each molecule tested received a call. Report the one for COc1cc2c(c(OC)c1)C1c3cc(OC)ccc3NC(=O)N1CC2 (stereo unspecified) .
inactive

Each molecule tested received a call. Report the one for O=C1/C(=C/c2cccc(OCc3ccccc3)c2)Oc2cc(OCCN3CCCCC3)ccc21 .
inactive

Each molecule tested received a call. Report the one for O=C(O)CC1CCCCC1c1ccccc1 (stereo unspecified) .
inactive

Each molecule tested received a call. Report the one for O=C1/C(=C\c2cn(CC(O)CN3CCCCC3)c3ccccc23)c2ccccc2N1c1c(Cl)cccc1Cl (stereo unspecified) .
active

###

# System: K-562 leukemia
# assay.explanation: NCI-60 one-dose screen, 48 h
# condition.label: 10 µM unless noted
This is part of a sample that, as a whole, favours compounds with a hit. Of some 83,000 tested, about 20% had one in any assay. The source made the active and inactive calls. The calls were made as follows: active = growth percent below 10; inactive = the rest.
Outcomes you can answer with include only these: Yes for active, No for inactive

O=C(C[n+]1ccn(CC(OCc2ccc(Cl)cc2Cl)c2ccc(Cl)cc2Cl)c1)c1ccc(F)cc1 (centres undefined): Yes
COc1ccc(C(C(=O)O)c2ccc(OC)cc2)cc1: No
CC1=CC[C@@H]2C(C)(C)[C@@H](O)CC[C@@]2(C)[C@@H]1COc1ccc2ccc(=O)oc2c1: No

Let's switch to this compound now.
Each compound tested received a call. Report the one for C=CC1=C(C)C2=NC1=CC1=NC(=CC3=C(C)C4=C(O)C(C(=O)O)C(=C5NC(=C2)C(C)C5CCC(=O)O)C4=N3)C(CC)=C1C (centres undefined) .
No

###

# System: A498 renal
# assay.explanation: NCI-60 one-dose screen, 48 h (100 = growth as untreated, 0 = no growth, -100 = all killed)
# condition.label: 10 µM unless noted
About 83,000 compounds went through this panel and 20% of them were active in at least one assay; those are over-represented in the sample as a whole.
Threshold check on growth: at or above 80% gives true, strictly below gives false.

For orientation, consider the following solved cases.
CC(C)(C)c1cc(C(=O)N2CCC(C(=O)NCCN)CC2)cc(C(C)(C)C)c1: false
COc1ccc2c(c1)C(C)Cc1c(Cl)nc(C)nc1N2C (stereo unspecified): false
CCN(CC)c1cc(N)c(Cc2c(N)cc(N(CC)CC)cc2Cl)c(Cl)c1: false

Check this molecule for growth at or above 80%: NC(=O)c1c(NC(=O)COC(=O)Cc2ccccc2F)sc2c1CCC2
true

Check this molecule for growth at or above 80%: CCCCCCCCCCCCNC(=S)N/N=C/c1ccccc1O
true

Hello, the source for this data is PubChem BioAssay (NCI), in case you need it.
